# Tested on: CCRIS mutagenicity, Ames/micronucleus/aberration tests
# experimentDescription: CCRIS mutagenicity studies
# statedConditions: Test System: E. COLI; Strain/Indicator: WP2 UVRA; Metabolic Activation: HAMSTER, LIVER, S-9; Method: STANDARD PLATE
Calls of active or inactive are those of the source. The rule behind the calls is not given here.
Your response should consist of one outcome taken from 1 (active), 0 (inactive)

CCN(N=O)c1ccccc1 : 0

q: What was the test verdict on CC(=O)Nc1ccc(C(=O)CCl)cc1 ?
a: 0

q: What was the test verdict on O=c1[nH]cc(N(CCCl)CCCl)c(=O)[nH]1 ?
a: 1

q: What was the test verdict on COc1ccc(N)c(OC)c1 ?
a: 0

q: What was the test verdict on Cc1ccc2cc3c(ccc4ccccc43)c3c2c1CC3 ?
a: 0

* * *

# Tested on: CCRIS mutagenicity, Ames/micronucleus/aberration tests
# experimentDescription: CCRIS mutagenicity studies
# statedConditions: Test System: AMES SALMONELLA TYPHIMURIUM; Strain/Indicator: TA100; Metabolic Activation: RAT, LIVER, S-9, PHENOBARBITAL AND BETA-NAPHTHOFLAVONE; Method: PREINCUBATION
Calls of active or inactive are those of the source. No rule for the calls is given here.
observationType: mutagenic call

// known answers, use as guide
COc1cc2c3c(c1O)-c1cc4c(cc1C[C@@H]3N(C)CC2)OCO4 : inactive; negative
NCc1cccc(CN)c1 : inactive; negative
CN1CCc2cc3c(c4c2[C@H]1Cc1ccccc1-4)OCO3 : active; positive
CN1C[C@@H](O)c2cc3c(c4c2[C@H]1Cc1ccccc1-4)OCO3 : active; positive
CCCCCCCCCCO : inactive; negative
CC(=O)CC(=O)Nc1ccc(C)cc1 : inactive; negative

In the following, a different compound is considered.
q: # mutagenic call lookup, item CCC(C)=O
a: inactive; negative

* * *

# Tested on: CCRIS mutagenicity, Ames/micronucleus/aberration tests
# experimentDescription: CCRIS mutagenicity studies
# statedConditions: Test System: AMES SALMONELLA TYPHIMURIUM; Strain/Indicator: TA1538; Metabolic Activation: RAT, LIVER, S-9, AROCLOR 1254; Method: STANDARD PLATE
Active and inactive are the calls of the source. The rule behind the calls is not given here.
Your response should consist of one outcome taken from active, inactive

Solved cases below.
O=C([O-])[C@H](O)[C@@H](O)[C@H](O)[C@H](O)CO.O=C([O-])[C@H](O)[C@@H](O)[C@H](O)[C@H](O)CO.[Mn+2] : inactive
CCC(C)(C)OC : inactive
CCN(CC)c1ccc2c(-c3ccc(S(=O)(=O)O)cc3S(=O)(=O)[O-])c3ccc(=[N+](CC)CC)cc-3oc2c1 : inactive

q: What was the test verdict on Nc1ccc(O)c([N+](=O)[O-])c1 ?
a: inactive

q: What was the test verdict on O=P([O-])([O-])OC(CCO)CCO.O=P([O-])([O-])OCC(O)CO.[Mn+2].[Mn+2] ?
a: inactive

q: What was the test verdict on CN(C)C(=O)Oc1ccc[n+](C)c1 ?
a: inactive

q: What was the test verdict on CCC(=O)N(c1ccc(Cl)c(Cl)c1)[C@@H]1CCC[C@H]1N(C)C ?
a: inactive

q: What was the test verdict on Nc1c(S(=O)(=O)O)cc(NC2CCCCC2)c2c1C(=O)c1ccccc1C2=O ?
a: inactive

q: What was the test verdict on CN(CCO)C(=O)Nc1ccccc1 ?
a: inactive

q: What was the test verdict on Nc1ccc(Cl)cc1[N+](=O)[O-] ?
a: active

q: What was the test verdict on O=CC(O)C(O)C(O)CO (stereo unspecified) ?
a: inactive

q: What was the test verdict on Oc1ccc2c(O)c3ccccc3cc2c1O ?
a: inactive

* * *

# Test system: CCRIS mutagenicity, Ames/micronucleus/aberration tests
# experimentDescription: CCRIS mutagenicity studies
# statedConditions: Test System: AMES SALMONELLA TYPHIMURIUM; Strain/Indicator: TA1535; Metabolic Activation: HAMSTER, LIVER, S-9, AROCLOR 1254; Method: PREINCUBATION
Calls of active or inactive are those of the source. The rule behind the calls is not given here.
Your response should consist of one outcome taken from t = active, f = inactive

Solved cases below.
ClC1(Cl)C2(Cl)C3(Cl)C4(Cl)C(Cl)(Cl)C5(Cl)C3(Cl)C1(Cl)C5(Cl)C24Cl (centres undefined) : f
c1ccc(Nc2ccc3ccccc3c2)cc1 : f
CCN(N=O)c1ccccc1 : f
Brc1ccc(-c2ccccc2)cc1 : f
c1ccc2occc2c1 : f

q: What was the test verdict on CN(C)c1ccccc1 ?
a: f

* * *

# Test system: CCRIS mutagenicity, Ames/micronucleus/aberration tests
# experimentDescription: CCRIS mutagenicity studies
# statedConditions: Test System: AMES SALMONELLA TYPHIMURIUM; Strain/Indicator: TA98; Metabolic Activation: NONE; Method: STANDARD PLATE
# Excerpt: The CCRIS database contains chemical records with carcinogenicity, mutagenicity, tumor promotion, and tumor inhibition test results. It was developed by the National Cancer Institute (NCI). Data are derived from studies cited in primary journals, current awareness tools, NCI reports, and other sources. Test results have been reviewed by experts in carcinogenesis and mutagenesis. CCRIS provides historical information from the years 1985 - 2011. It is no longer updated. […]
Active and inactive are the calls of the source. The rule behind the calls is not given here.
Your response should consist of one outcome taken from 1.0 for active, 0.0 for inactive

Solved cases below.
CO[C@]1(CC[C@@H](C)CO[C@@H]2O[C@H](CO)[C@@H](O)[C@H](O)[C@H]2O)O[C@H]2C[C@H]3[C@@H]4CC=C5C[C@@H](O[C@@H]6O[C@H](CO)[C@@H](O[C@@H]7O[C@@H](C)[C@H](O)[C@@H](O)[C@H]7O)[C@H](O)C6O[C@@H]6O[C@@H](C)[C@H](O)[C@@H](O)[C@H]6O)CC[C@]5(C)[C@H]4CC[C@]3(C)[C@H]2[C@@H]1C (some centres not stated) : 0.0
COC1=CC=CC=CC1 : 0.0
Clc1cc(Cl)c(Cl)cc1Cl : 0.0

q: What was the test verdict on CCCCC(CC)COC(=O)c1ccc(N(C)C)c([N+](=O)[O-])c1 (configuration not stated) ?
a: 1.0

q: What was the test verdict on O=C1NCCN1c1nccs1 ?
a: 1.0

q: What was the test verdict on CNc1ccc(N(CCO)CCO)cc1[N+](=O)[O-] ?
a: 0.0

* * *

# Tested on: CCRIS mutagenicity, Ames/micronucleus/aberration tests
# experimentDescription: CCRIS mutagenicity studies
# statedConditions: Test System: AMES SALMONELLA TYPHIMURIUM; Strain/Indicator: TA100; Metabolic Activation: RAT, LIVER, MICROSOMES, PHENOBARBITAL; Method: PREINCUBATION
Activity calls are given as the source filed them. The rule behind the calls is not given here.
Your response should consist of one outcome taken from True for active, False for inactive

Solved cases below.
CC(C)(Br)C(Br)COP(=O)(OCC(Br)C(C)(C)Br)OCC(Br)C(C)(C)Br (centres undefined) : False
CC(Br)(CCl)CBr (centres undefined) : False
ClCC(Br)CBr (centres undefined) : True

We next turn to a different molecule, shown below.
q: What was the test verdict on O=P(OCC(Br)CBr)(OCC(Br)CBr)OCC(Br)CBr (centres undefined) ?
a: True

* * *

# Tested on: CCRIS mutagenicity, Ames/micronucleus/aberration tests
# experimentDescription: CCRIS mutagenicity studies
# statedConditions: Test System: AMES SALMONELLA TYPHIMURIUM; Strain/Indicator: TA100; Metabolic Activation: NONE; Method: PREINCUBATION
The source made the active and inactive calls. How the calls were made is not given here. Where a SMILES comes first, the peptide text is derived from it. [ ]: non-standard residue; d: D form. ξ: configuration not given here. Trp(1-OMe) = COn1cc(C[C@H](N)C(=O)O)c2ccccc21; Asu = N[C@@H](CCCCCC(=O)O)C(=O)O; Ile(3ξ) = CCC(C)[C@H](N)C(=O)O; dPip = O=C(O)[C@H]1CCCCN1
Your response should consist of one outcome taken from yes (1) (active), no (0) (inactive)

Solved cases below.
CC1(C)S[C@@H]2[C@H](NC(=O)COc3ccccc3)C(=O)N2[C@H]1C(=O)O : no (0)
O=C(/C=C/c1ccc([N+](=O)[O-])cc1)c1ccccc1 : no (0)
Nc1ccc(O)c([N+](=O)[O-])c1 : no (0)
Cc1ccc(N=Nc2c(O)ccc3ccccc23)c([N+](=O)[O-])c1 : no (0)
CCC(C)[C@@H]1NC(=O)[C@H](Cc2cn(OC)c3ccccc23)NC(=O)[C@H](CCCCCC(=O)OC)NC(=O)[C@H]2CCCCN2C1=O (stereo partly drawn) (cyclo([Asu](OMe)[Trp(1-OMe)][Ile(3ξ)][dPip])) : no (0)
Cc1cccc(O)c1 : no (0)
NCc1cccc(CN)c1 : no (0)
CCC1(c2ccccc2)C(=O)NC(=O)NC1=O : no (0)

We next turn to a different compound, shown below.
q: What was the test verdict on Clc1ccc2ccccc2c1 ?
a: no (0)
